Provenance of the data: patent US20070258912A1

Below: a set of entries, each annotated with reported MIC.
System: Corynebacterium xerosis
test_protocol: MIC in the agar incorporation test
Format: cell-based
condition_details: ATCC373, 24 h, read-out: MIC Corynebacterium xerosis
Return type: number; implicit unit µg/mL.

A selection of reference data follows.
C[n+]1ccccc1COc1ccccc1/C=C/c1ccc(-c2ccc(/C=C/c3ccccc3OCc3cccc[n+]3C)cc2)cc1 :: 100
C[n+]1ccc(Oc2ccccc2/C=C/c2ccc(-c3ccc(/C=C/c4ccccc4Oc4cc[n+](C)cc4)cc3)cc2)cc1 :: 3.1

Lab note: need MIC for CC[N+](C)(C)CCCOc1ccccc1/C=C/c1ccc(-c2ccc(/C=C/c3ccccc3OCCC[N+](C)(C)CC)cc2)cc1 on Corynebacterium xerosis, anyone have it?
31.3

Lab note: need MIC for COc1cccc(/C=C/c2ccc(-c3ccc(/C=C/c4cccc(OC)c4OCCCN(C)C)cc3)cc2)c1OCCCN(C)C on Corynebacterium xerosis, anyone have it?
125

###

Tested on: Streptococcus gordonii
test_protocol: MIC against oral microorganisms via broth dilution
Format: cell-based
condition_details: ATCC10558, broth dilution 0.94-15 ppm, 24 h aerobically with 10% CO2, ATCC 10558, read-out: MIC Streptococcus gordonii
measured_parameter: MIC (µg/mL)
Return type: number; implicit unit µg/mL.

CCN(CC)CCOc1ccccc1/C=C/c1ccc(/C=C/c2ccccc2OCCN(CC)CC)cc1 :: 7.5
COc1cccc(/C=C/c2ccc(/C=C/c3cccc(OC)c3OCCCN(C)C)cc2)c1OCCCN(C)C :: 15
CN(C)CCSc1ccccc1/C=C/c1ccc(/C=C/c2ccccc2SCCN(C)C)cc1 :: 7.5

Requested read-out: MIC. Entry: CN(C)CCCOc1ccccc1/C=C/c1ccc(/C=C/c2ccccc2OCCCN(C)C)cc1
7.5

Requested read-out: MIC. Entry: Cc1ccc(/C=C/c2ccc(/C=C/c3cccc(OCCCN(C)C)c3)cc2)c(OCCN(C)C)c1
7.5

Requested read-out: MIC. Entry: Cc1ccc(/C=C/c2ccc(/C=C/c3ccc(C)c(OCCCN(C)C)c3)cc2)cc1OCCCN(C)C
15

###

Below: a set of entries, each annotated with reported MIC.
Test system: Propionibacterium acnes
test_protocol: MIC in the agar incorporation test
Type: cell-based
condition_details: Cutibacterium acnes; agar incorporation, Mueller Hinton agar, 24 hours at 37° C.; read-out: MIC Propionibacterium acnes

A selection of reference data follows.
CN(C)CCCOc1ccccc1/C=C/c1ccc(/C=C/c2ccccc2OCCCN(C)C)cc1 [formula 26] :: 12.5 µg/mL
CCN(CC)CCOc1cccc(/C=C/c2ccc(/C=C/c3cccc(OCCN(CC)CC)c3OCCN(CC)CC)cc2)c1OCCN(CC)CC [formula 25] :: 62.5 µg/mL
Cc1ccc(/C=C/c2ccc(/C=C/c3ccc(C)c(OCCCN(C)C)c3)cc2)cc1OCCCN(C)C [formula 30] :: 6.3 µg/mL
Cc1ccc(/C=C/c2ccc(/C=C/c3cccc(OCCCN(C)C)c3)cc2)c(OCCN(C)C)c1 [formula 29] :: 3.1 µg/mL
COc1cccc(/C=C/c2ccc(/C=C/c3cccc(OC)c3OCCCN(C)C)cc2)c1OCCCN(C)C [formula 27] :: 6.3 µg/mL

Requested read-out: MIC. Entry: CCN(CC)CCOc1ccccc1/C=C/c1ccc(/C=C/c2ccccc2OCCN(CC)CC)cc1 [formula 24]
3.8 µg/mL

Requested read-out: MIC. Entry: CN(C)CCSc1ccccc1/C=C/c1ccc(/C=C/c2ccccc2SCCN(C)C)cc1 [formula 23]
3.9 µg/mL
